target: T1, rhesus serum albumin (rhesus, UniProt Q28522 17-600); experiment: SPR, single cycle kinetics, pH 7.4
T1 construct: also called RhSA
experimental_endpoint: Kd (nM)

1) Rh46-H1 (VHH) VHH: EVQLVESGGGLVQPGGSLRLSCAASTRTFSSYIMGWFRQAPGKGLELVSAISWSGRMTHYADSVKGRFTISRDNSKNTLYLQMNSLRAEDTAVYYCAADRTTAWGAPRSQYDSWGQGTLVTVSS : 707
2) R11-H6 (VHH) VHH: QVQLVESGGGLVQPGGSLRLSCAGPGFLLRSNTMGWYRQAPGKERELVAFIRPSGLTNYNDAVQGRFTISRDNAKNTVYLQMNSLRAEDTAVYYCHTRPPFQRDSWGQGTLVTVSS : 561

Where do these numbers come from? They come from patent US20210253679A1.
